Sourced from paper PMC12118337

Biological target: SHP2 N‐SH2 domain (Homo sapiens, UniProt Q06124)
Construct: SHP2 N-SH2 domain (1–105), C-SH2 domain (106–220), PTP domain (224–541) and; His6 (pETM22 vector) (N, cleaved yes); made in house; host or cells: E. coli BL21(DE3)
Sequence (Q06124 1-105): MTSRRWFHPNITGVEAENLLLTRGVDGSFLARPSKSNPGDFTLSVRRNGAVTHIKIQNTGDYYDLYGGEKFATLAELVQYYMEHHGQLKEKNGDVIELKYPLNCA
Assay: Fluorescence polarization (FP) binding assay, SHP2 N-SH2 domain
Conditions: 100 nM FAM-labelled peptide, increasing N-SH2 protein, 50 mM HEPES pH 7.5, 150 mM NaCl, 1 mM EDTA, 0.05% Tween 20, FP at 10 min, three independent experiments in technical triplicates, read-out: K D ± SEM, N‐SH2 (FP)
Non-standard residues stand in square brackets, D forms with d. Residues, ends and D or L forms follow the SMILES beside them. *: point of attachment. 5FAM = O=C1OC2(c3ccc(O)cc3Oc3cc(O)ccc32)c2ccc(C(=O)*)cc21; pY = N[C@@H](Cc1ccc(OP(=O)(O)O)cc1)C(=O)O
Record form. Attribute: Kd. Fill in for each entry.

Incoming: Which value of Kd has been reported for CC[C@H](C)[C@H](NC(=O)[C@@H](NC(=O)[C@H](C)NC(=O)[C@H](Cc1ccc(OP(=O)(O)O)cc1)NC(=O)[C@H](CCC(=O)O)NC(=O)[C@@H](NC(=O)[C@H](CCC(N)=O)NC(=O)[C@H](CCC(=O)O)NC(=O)c1ccc2c(c1)C(=O)OC21c2ccc(O)cc2Oc2cc(O)ccc21)[C@@H](C)O)[C@@H](C)O)C(=O)N[C@H](C(=O)N[C@@H](C)C(=O)N1CCC[C@H]1C(N)=O)C(C)C [compound 8] (5FAM-EQTE[pY]ATIVAP-NH2) in the records?
Outgoing: > 2000 nM

Incoming: Can you handle CC[C@H](C)[C@H](NC(=O)[C@@H](NC(=O)[C@H](C)NC(=O)[C@H](Cc1ccc(OP(=O)(O)O)cc1)NC(=O)[C@H](CCC(=O)O)NC(=O)[C@@H](NC(=O)[C@H](CCC(N)=O)NC(=O)[C@H](CCC(=O)O)NC(=O)c1ccc2c(c1)C(=O)OC21c2ccc(O)cc2Oc2cc(O)ccc21)[C@@H](C)O)[C@@H](C)O)C(=O)N[C@@H](CCCCN)C(=O)N[C@@H](Cc1ccccc1)C(=O)N1CCC[C@H]1C(N)=O [compound 9] (5FAM-EQTE[pY]ATIKFP-NH2) next?
Outgoing: > 2000 nM

Incoming: Can you handle CC(C)[C@H](NC(=O)[C@H](C)NC(=O)[C@@H](NC(=O)[C@H](C)NC(=O)[C@H](Cc1ccc(OP(=O)(O)O)cc1)NC(=O)[C@H](CCC(=O)O)NC(=O)[C@@H](NC(=O)[C@H](CCC(N)=O)NC(=O)[C@H](CCC(=O)O)NC(=O)c1ccc2c(c1)C(=O)OC21c2ccc(O)cc2Oc2cc(O)ccc21)[C@@H](C)O)[C@@H](C)O)C(=O)N[C@@H](Cc1ccccc1)C(=O)N1CCC[C@H]1C(N)=O [compound 6] (5FAM-EQTE[pY]ATAVFP-NH2) next?
Outgoing: > 10000 nM
